- METHOD NOTES: yeast display, Sf9 membrane polyspecificity reagent, FACS + sequencing; frameworks hold sequencing errors

| BIOSEQUENCE | polyreactivity (PSR sort gate) |
| --- | --- |
| QVQLVESGGGLVQAGGSLRLSCAASGSTFYENTMGWYRQAPGKERELVAAISFRGGSTYYADSVKGRFTISRDNAKNTVYLQMNSLKPEETAVYYCAKEYYTVRLYDYWGQGTQVTVSS | low polyreactivity |
| QVQLVESGGGLVQAGGSLRLSSAASGSTFAFNAMGWYRHAHGKEREFVARITWSDGSTYYADSVKGRFTISRDNAKNTVYLQMNCLKPEDTAVYYCARDPTEQAIARWTYDYWGQGTQVTVSS | low polyreactivity |
| QVQLVESGGGLVQAGGSLRLSCAASGFIFYYYTMGWYRQAPGKERELVAAISSGGSTYYADSVKGRFTISRDNAKNTVYLQMNSLKPEDTAVYYCNKRYPSPEYNYWGQGTQVTVSS | high polyreactivity |
| QVQLVESGGGLVQAGGSLRLSCAASGRTFRYNAMGWYLQAPGKERELVAAITRRDGRTYYADSVKGRFTISRDNAKNTVYLQMNSLKPEDTAVYYCGVEYWVVNAQGYDYWGQGTQVTVSS | high polyreactivity |
| QVQLVESGGGFVQAGGSLPLSCAASGRTFGPYAMRWYRQAPGKERELVAAISSSDGSTYYADSVKGRFTISRDNAKNTVYLQMNSLKPEDTAVYYCNARYYLWSTTRWYGYDYWGQGTQVTVSS | high polyreactivity |

====

- METHOD NOTES: yeast display, Sf9 membrane polyspecificity reagent, FACS + sequencing; frameworks hold sequencing errors

| BIOSEQUENCE | polyreactivity (PSR sort gate) |
| --- | --- |
| QVQLVESGGGLVQAGGSLRLSCAASGRTFGSNAMGRYRQAPGKDRELVAAISVRGGRTYYADSVKGRFTISRDIAKNTGYLQMNSLKPEDTAVYYCNAVYRTYEYYWGQGTQVTVSS | high polyreactivity |
| QVQLVESGGGLVQAGGSLRLSCAASGSTFLGYVMGWSRQAPGKERELVAAITRSGGRTYYADSVKGRFTISRDNAKNTVYLQMTSLNPEDTAVYYCAALRGPSFHGYGYWGQGTQVTVSS | high polyreactivity |
| QVQLLESGGGLVQAGVSLRLSCSASGFTFGRYAMGCYRQAHGKERELVAGITWSGGSTSYADSVKGRFTISRDNAKNTVYLQMNSLKPEDTAVYYCATRARYTRVHGRRYAYDYWGQGTQVTVSS | high polyreactivity |
| QVQLVESGVGLVQAAGSLRLSCAASGSIFPDNAMGWSRQAPGKERELVAAIDKGTGSTNYADSVKGRFTISRDNAKNTVYLQMNSLKPEDTAVYYCATYVVTLYWWYTYDYWGQGTQVTVSS | low polyreactivity |
| QVQIVESGGGLVQAGGSLRLSCAASGSTFPSYAMGWYRQATGKEREWVAAITRSCGRTYYADSVKGRFTISRDNSKHTVYLQMNSLKPEDTAVYYCAADLGSNYDYWGQGTQVTVLS | low polyreactivity |
| QVLLVESGGGLVQAGGSLRLSCAASGITFGRNTMGWYRQAPGKDRELVAAIDSGGNTYADSVKGRFTISRDNAKNTVSLQMNSRKPEDTAVDYCAVDGGEFSSYGYWGQGTQVTVSS | low polyreactivity |
| QVQLVESGGGLVQAGGSLRLSCAASGRIFWRNTMGWYRQAPGKERELVAAITGSSTRTYYADSVKGRFTISRDNAKNTVYLQMNSLKPEDTAVYYCAARSYPYQVAAGYVTRFNYWGQGTQVTVSS | high polyreactivity |
| QVQLVESGGGLVQAGGSLRLSCAASGRIFYYYAMGWYRQAPGKERELVAVISRGGRTKYADSVKGRFTISRDNAKNTVYLQMNSLKPEDTAVYYCAVGLSGASSGMGYWGQGTQVTVSS | high polyreactivity |
| QVQLQESDGGLVQAGGSLRLSCAASGSISPQYYMGWYRQEPGKEREYVAISKGTTTYYADSVKGRLTISRVNAKNTVYLQMNRLKPEDTAVYCCAAGRWLQKVHAYWDQGTQVTVSS | low polyreactivity |
| QVQLVESGGGLVQAGGSLRLSCAASGYILYANAMGWYRQAPGKERELVASITFGDDSTYYADSVKGRFTISRDNAKNTVYLQMNSLKPEDTAVYYCNADHKVEVEDDYWGQGTQVTVSS | low polyreactivity |
| QVQLVESGGGLVQAGGSLRLSCAASGSTFGYYAMGWYRQAPGKERELVATITIGGSTHYADSVKGRFTISRDNAKNTVYLQMNSLKPEDTAVYYCAKRYYTNRHSRAFGFWGQGSQVTVSS | high polyreactivity |
